Assay: qHTS of pediatric cancer cell lines to identify multiple opportunities for drug repurposing: Confirmatory screen for U-2 OS cells (AID 1347122); also: nearly all actives have a fitted effect of over 65% in size
Details: U-2 OS osteosarcoma cell viability; series mostly up to 45.9 µM
Inconclusive results are not listed. Active and inactive are the calls of the source. Calls follow the shape of the dose curve; as a rule, active = well fitted cell-killing curve with a large enough effect; inconclusive = small, poorly fitted or top-dose-only effect; inactive = no such curve, though single readings can be large or run the other way.
Form entry, call: pick from true for active, false for inactive

Please review the following examples before continuing.
FC(F)(F)c1ccc(C=Cc2nc(COc3ccc(CCCCn4ccnn4)cc3)co2)cc1	true
Cc1c(C(=O)Nc2ccc(N3C[C@@H](C)O[C@@H](C)C3)nc2)cccc1-c1ccc(OC(F)(F)F)cc1	true
CC1CNc2c(cccc2S(=O)(=O)N[C@@H](CCCN=C(N)N)C(=O)N2CC[C@@H](C)C[C@@H]2C(=O)O)C1 (stereo not given in full)	false

Prompt line: Which outcome was assigned to CON(C)C(=O)N1N=C(c2cc(F)ccc2F)S[C@]1(CCCN)c1ccccc1 in this test?
Response line: true

Prompt line: Which outcome was assigned to C=C1[C@H](n2cnc3c(=O)[nH]c(N)nc32)C[C@H](O)[C@H]1CO in this test?
Response line: false

Prompt line: Which outcome was assigned to Cc1ccc(C(=O)N(CCCN)[C@@H](c2oc3cc(Cl)ccc3c(=O)c2Cc2ccccc2)C(C)C)cc1 in this test?
Response line: true

Prompt line: Which outcome was assigned to CCN(CCO)CCCOc1ccc2c(Nc3cc(CC(=O)Nc4cccc(F)c4)[nH]n3)ncnc2c1 in this test?
Response line: false

Prompt line: Which outcome was assigned to O=C(c1ccc(F)c(F)c1Nc1ccc(I)cc1F)N1CC(O)([C@H]2CCCCN2)C1 in this test?
Response line: true

Prompt line: Which outcome was assigned to CCC(=O)OCC(=O)[C@@]1(OC(=O)CC)[C@@H](C)C[C@@H]2[C@H]3CCC4=CC(=O)C=C[C@]4(C)[C@@]3(F)[C@@H](O)C[C@@]21C in this test?
Response line: false

Prompt line: Which outcome was assigned to CO[C@H]1/C=C\O[C@@]2(C)Oc3c(C)c(O)c4c(O)c(c(C=NN5CCN(C6CCCC6)CC5)c(O)c4c3C2=O)NC(=O)C(C)=CC=C[C@H](C)[C@H](O)[C@@H](C)[C@@H](O)[C@@H](C)[C@H](OC(C)=O)[C@H]1C in this test?
Response line: false

Prompt line: Which outcome was assigned to CN(C)CCN(C)C(=O)c1ccc(NC(=O)Nc2ccc(-c3nc(N4CCOCC4)c4ccn(CC(F)(F)F)c4n3)cc2)cc1 in this test?
Response line: true

---

Assay: Quantitative High-Throughput drug screen in 47 multiple myeloma cell lines against the NCATS MIPE library collection: XG1_PLB cell viability assay (AID 1919866); also: nearly all actives have a fitted effect of over 35% in size
Settings: CellTiter-Glo ATP, 48 h; series mostly up to 45.8 µM
Records with an inconclusive call do not appear. Activity calls are given as the source filed them. The call rests on the fitted dose curve; in most records, active means well fitted cell-killing curve with a large enough effect; inconclusive means small, poorly fitted or top-dose-only effect, or effect the other way; inactive means no such curve, though single readings can be large or run the other way.
Form entry, call: pick from active, inactive

O=C(O)C1=CO[C@@H](O[C@@H]2O[C@H](CO)[C@H](O)[C@H](O)[C@H]2O)[C@@H]2C(CO)=CC[C@H]12	inactive
C#C[C@]1(O)CC[C@H]2[C@H]3CCc4cc(OC)ccc4[C@H]3CC[C@@]21C	active
Cc1cccc(-c2[nH]c(C(C)(C)C)nc2-c2ccc3c(c2)OCO3)n1	active
Cc1nn(Cc2ccccc2Cl)c(C)c1CN(C)CC(O)COc1ccc(Cl)cc1 (stereo unspecified)	active
CC(=O)OCC(=O)[C@@]12OC(C)(C)O[C@H]1C[C@H]1[C@@H]3C[C@H](F)C4=CC(=O)C=C[C@]4(C)[C@@]3(F)[C@@H](O)C[C@@]12C	inactive

Prompt line: Which outcome was assigned to C[C@H]1[C@H](O)O[C@@H]2O[C@@]3(C)CC[C@@H]4[C@H](C)CC[C@@H]1[C@@]24OO3 in this test?
Response line: active

Prompt line: Which outcome was assigned to CC[C@H](C)n1cc(C)c2c(C(=O)NCc3c(C)cc(C)[nH]c3=O)cc(-c3ccc(N4CCNCC4)nc3)cc21 in this test?
Response line: active

Prompt line: Which outcome was assigned to O=C(Nc1cccc(Cl)c1)Nc1ncc(CCNc2ncnc3ccsc23)s1 in this test?
Response line: active

Prompt line: Which outcome was assigned to O=C1Nc2ccc(I)cc2C1=Cc1cc(Br)c(O)c(Br)c1 in this test?
Response line: active
